Experiment: yeast display, Sf9 membrane polyspecificity reagent, FACS + sequencing; frameworks hold sequencing errors

seqString | polyreactivity (PSR sort gate)
QVQLVESGGGLVQAGGSLRLSCAASGFIFKIYAMGWYRQAPGKERELVAAISSGDNTNYADSVKGRFTISRDNAKNTVYLQMNSLKPEDTAVYYCAARAYRWRSFSTMYYWGQGTQVTVSS | high polyreactivity
QVQLVESGGGLVQAGGSLRLSCAASGRIFDVNAMGWYRQAPGKERELVAAITYSDGSTYYADSVTGRFTISRDNAKNTVYLQMNSLKPEDTAVDYCAATQEPVTPQPYGYWGQGTQVTVSS | low polyreactivity
QVQLVESGGGLVQAGGSLRLSCAASGSIFGYNAMGWYRQAPGKERELVAAINYNGGRTYYADSVKGRFTISRDNAKNTVYLQMNSLKPEDTAVYYCNKVYLRTSGRDYWGQGTQVTVSS | high polyreactivity
QVQLVESGGGIVQAGGSLRLSCAASGFTFQFYAMGWYRQAPGKEREFVAAISGSGGSTYYADSVKGRFTISRDNAKNTVYLQMNSLKPEDTAVYYCAAEVPGKPYRRSRYSFRHDYWGQGTQVTVSS | low polyreactivity
QVQLVESGGGLVQAGGSLRLSCAASGYTFTTYAMGWYRQAPGKEREFVASIRWRGGNTYYADSVKGRFTISRDNAKNTVYLQMNSQKREDTAVYYCARRVDYISSKYGYWGQGTQVTVSS | high polyreactivity

----------
Test: yeast display, Sf9 membrane polyspecificity reagent, FACS + sequencing; frameworks hold sequencing errors
quantityKind: polyreactivity (PSR sort gate)

seqString | result
QVQLVESGGGLVQAGGSLRLSCAASGYIFVVNAMGLDRQAPGKERELVAAIDWGGGSTYADSVKGRFTISRDNAKNTVYLQMNSLKPEDTAVYYCAADLWPYPNDYWGQGTQVTVSS | low polyreactivity
QVQLVESGGGLVQAGGSLRLSCAASGRIFAVYAMGWYRQAPGKEREFVAAISYSGGITYYADSVKGRFTISRDTAKNTVYLQMNSLKPEDTAVYYCNAYYYFWGQGTQVTVSS | low polyreactivity
QVQLEESGGGLVQAGGSLRLSCAASGRIFRPNAMGWYRQAPGKERELVAAISSGGSTYYADSVKGRFTISRDNAKNTVYLQMNSLKPEDTAVYYCAARSRGYDIRYGYWGQGTQVTVSS | high polyreactivity
QVQLVESGGGLVQSGGSLRLSCAATGSTFWNYAMGWYRQAPGKERELVAAITRGSSTNYADSVKGRFTISRDNAKNTVYLQMNSMKPEDTAVYYCAKRVGRWSAFYYWGQGTQVTVSS | high polyreactivity
QVQLVESGGGLVQAGGSLRLSCAASGGIFTFNDMGWYRQAPGKERELVAAISRRGGSTYYADSVKGRFTISRDNAKNTVFLQMNSLKPEDTAVYYCAASSRRQRSEPYYYWGQGTQVTVSS | high polyreactivity
QVQLVESGGGLVQAGGSLRLSCAASGFTFYKYVMGWYRQAPGKERELVAAITQGGGSTYYADSVKGRFTISRDNAKNTVYLQMNSLKPEDTAVYYCNARNGYGIGYWGQGTQVTVSS | high polyreactivity
QVQLRESGGGLVQAGGSLRLSCAASGRIFGNYSMGRYRQAPGKEREMVAAISGGGSTYYADSVKGRFTISRDNAKNTVYLQMTSLKPEDTAVYYCADRFLWSVFCRKGGYWGQGTQVTVSS | low polyreactivity
QVQLVESRGGLVQAGGSLRLSCAASGPTFLINAMGCYRQAPGKETELVAEITGRGSSTYYADSVKGRFTISRDNAINTVYLQMNSLKAEDTAVYYCNAVLRKMTYDYWGQGTQVTVSS | high polyreactivity
QVQLVESGGGLVQAGGSLRLSCAASGRIFNTYAMGWYRQAPGKERELVAAISWRGVSTYYADSVKGRFTISRDNAKNTVYLQMNSLKAEDTAVYYCAALPFWWGGYWGQGTQVTVSS | high polyreactivity
QVQLVESAGGLVQAGGSLRLSCAASGSTFQWYAMGWSRQAPGKERELVAAIDSDGGTNYADSVKGRFTISRDNAKNTVYLQMNSLKPEDTAVYYCAVKPFYYGSEFDYWGQGTQVTVSS | low polyreactivity
QVQLVESGGGLVQAGGSLRLSCAASGSIFDSYAMGWYRQAPGKERELVAAISRIGGTTYYADSVKGRFTISRDNAKNTVYLQMNTLKPEDTAVYYCAAGPLLPRYSQYGYWGLGTQVTVSS | low polyreactivity
QVQLLESGGGLVQAGGSLRLSCAASGSTFWPNAMGWYRQAPGKERELVAAITGGGGTNYADSVKGRFTISRDNAKNTVYLQMNSLKPEDTAVYYCAAKKVNSRSHVKYYYWGQGTQVTVSS | high polyreactivity
QVQLVESGGGLVQAGVSLRLSCAASGINFTRYAMGWYRQAPGKERELVAAITRNGVSTYYADSVKGRFTISRDIAKNSVYLQMKSLKPEDTAVYYCNTFVLRRYAYCYWGQGTQVTVSS | high polyreactivity
QVQLVESGGGLVQAGGSLRLSCAASGFTFSNNAMGRYRQAPGKEREFVAAISGTGGSTYYADSLKGRFTISRDNANNTVYLQMNSLKPEDTAVYYCARRRTYPPGRYYYWGQGTQETVSS | high polyreactivity
QVQLVESGGGLVQAGGSLRLSCAASGSTYSYYAMGWYRQAPGKERELVAAITTSGGRTYYADSVKGRFTISRDNAKNTVYLQMNSLKPEDTAVYYCNARRHWYSAWGYDYWGQGTQVTVSS | high polyreactivity
QVQLVESGGGLVQAGGSLRLSCAASGRTFYHYAMGLYRQAPGKERELVAALNRVGGTNYADSVKGRFTISRDNAKNTVYLQMNSLKPEDTAVYYCNADIVARSSYSTKYEEFYYWGLGTQVTVSS | low polyreactivity
QVQLVESGGGLVQAGGSLRLSCAASGRIFGRYAMGWYRQAPGKERELVAAITSGGRTSYADSVKGRFTISRDNAKNTVYLQMNSLKPEDTSVYYCNVVSRNSIRFDYWGQGTQVTVSS | high polyreactivity
QVQLVESGGGLVQAGRSLRLSCAASGRIFVPYVMGWYRQAPGKERELVASISDSDTSTYYADSVKGRFTISRDNAKNTVYVQMNSLKPEDTAVYYCNVDYWGQGTQVTVSS | low polyreactivity
QFQLVESGGGLVQAGGSLRLSCAASGVSNALGWYRQAPGKERELVAAISRSGGSTYYADSVKGRFTISRANAKNTVNLQMNSLKPEDTAVYYCAVGYTYVYRYSSHKYDYWGEGTQVTVSS | high polyreactivity
QVQLVESGGGLVQAGGSLRLSCAASGRIFSGYAMGWYIQAHGKERELVAAISSTGGTYYADSVKGRFTISRDNAKNTVYLQMNSLKPEDTAVYYFAARYRTLTKYYWGQGTQVTVSS | low polyreactivity
QVQLVESGGGLVQAGGSLRLSCAASGSIFWGYAMGWYRQAPGKERELVATIRNRGGSTYYADSVKGRFTISRDNAKNTVYLQMNSLKPEDTAVYYCAARFPHRHYLLYTYDYWGQGTQVTVSS | low polyreactivity
